Where these numbers come from: patent US7205295B2

Biological target: PI3Kγ (p101/p110γ protein) (Homo sapiens, UniProt P48736)
Construct: HA
Sequence (P48736 whole entry, species assumed): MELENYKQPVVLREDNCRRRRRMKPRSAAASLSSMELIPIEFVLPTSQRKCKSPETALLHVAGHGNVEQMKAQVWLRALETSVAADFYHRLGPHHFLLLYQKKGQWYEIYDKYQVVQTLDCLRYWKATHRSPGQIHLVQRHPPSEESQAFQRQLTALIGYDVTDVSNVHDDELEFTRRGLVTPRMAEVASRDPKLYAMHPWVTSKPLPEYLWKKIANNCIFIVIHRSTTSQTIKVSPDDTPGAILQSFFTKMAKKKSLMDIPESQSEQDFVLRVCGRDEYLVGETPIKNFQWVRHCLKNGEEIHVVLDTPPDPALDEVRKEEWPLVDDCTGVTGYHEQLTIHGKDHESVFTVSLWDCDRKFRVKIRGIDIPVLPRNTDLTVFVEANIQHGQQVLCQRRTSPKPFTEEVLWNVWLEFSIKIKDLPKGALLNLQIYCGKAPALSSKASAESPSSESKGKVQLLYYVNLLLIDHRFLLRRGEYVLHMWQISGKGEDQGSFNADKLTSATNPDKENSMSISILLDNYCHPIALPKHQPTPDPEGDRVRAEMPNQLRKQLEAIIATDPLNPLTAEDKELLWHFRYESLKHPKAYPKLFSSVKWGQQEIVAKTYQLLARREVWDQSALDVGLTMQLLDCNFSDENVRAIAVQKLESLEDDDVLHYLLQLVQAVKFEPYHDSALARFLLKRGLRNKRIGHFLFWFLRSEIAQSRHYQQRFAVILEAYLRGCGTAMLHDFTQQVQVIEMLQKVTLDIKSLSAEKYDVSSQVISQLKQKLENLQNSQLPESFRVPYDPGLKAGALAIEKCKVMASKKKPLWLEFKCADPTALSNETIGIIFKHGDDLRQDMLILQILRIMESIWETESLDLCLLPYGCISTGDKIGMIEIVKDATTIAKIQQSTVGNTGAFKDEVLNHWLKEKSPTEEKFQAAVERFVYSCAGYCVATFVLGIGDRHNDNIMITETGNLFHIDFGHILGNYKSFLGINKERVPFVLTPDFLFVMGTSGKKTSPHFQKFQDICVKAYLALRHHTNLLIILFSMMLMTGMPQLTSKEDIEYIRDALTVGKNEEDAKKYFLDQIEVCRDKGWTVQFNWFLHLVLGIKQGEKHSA
Sequence (Q8WYR1 whole entry partner, species assumed): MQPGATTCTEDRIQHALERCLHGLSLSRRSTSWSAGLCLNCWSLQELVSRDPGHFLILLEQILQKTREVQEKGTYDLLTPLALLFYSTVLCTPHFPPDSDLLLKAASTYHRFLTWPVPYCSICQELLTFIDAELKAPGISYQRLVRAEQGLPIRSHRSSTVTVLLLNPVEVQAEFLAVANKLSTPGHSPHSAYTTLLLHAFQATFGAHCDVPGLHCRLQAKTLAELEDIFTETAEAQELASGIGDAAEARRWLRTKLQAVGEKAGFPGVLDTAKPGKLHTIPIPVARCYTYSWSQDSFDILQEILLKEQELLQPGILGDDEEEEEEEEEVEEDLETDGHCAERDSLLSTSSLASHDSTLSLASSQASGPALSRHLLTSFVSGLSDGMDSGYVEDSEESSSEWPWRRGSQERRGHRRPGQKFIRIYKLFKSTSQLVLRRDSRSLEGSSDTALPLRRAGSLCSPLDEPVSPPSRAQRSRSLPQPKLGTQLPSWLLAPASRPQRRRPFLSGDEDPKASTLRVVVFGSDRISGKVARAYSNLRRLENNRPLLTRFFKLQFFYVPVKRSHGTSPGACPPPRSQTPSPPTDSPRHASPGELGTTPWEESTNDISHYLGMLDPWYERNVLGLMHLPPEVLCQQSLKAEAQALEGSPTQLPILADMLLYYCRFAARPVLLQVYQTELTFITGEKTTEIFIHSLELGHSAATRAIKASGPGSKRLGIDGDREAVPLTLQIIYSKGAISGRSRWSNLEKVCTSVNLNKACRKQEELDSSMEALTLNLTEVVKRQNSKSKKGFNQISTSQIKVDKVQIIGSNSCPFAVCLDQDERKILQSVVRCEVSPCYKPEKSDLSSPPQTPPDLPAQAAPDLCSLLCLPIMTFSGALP
Assay: PI3Kγ In Vitro Kinase Assay
Details: purified recombinant p101/p110γ with G protein β1/γ2 subunits; 20 μM ATP, 25 μM PIP2; 20 minutes at room temperature
pIC50: −log10 of the molar value.
Parameter: pIC50

O=C1NC(=S)SC1=Cc1ccc2c(c1)N(Cc1ccc([N+](=O)[O-])cc1)C(=O)CO2; 7.68

P = Cc1cccc(C)c1CN1C(=O)COc2ccc(C=C3SC(=S)NC3=O)cc21
Q = Cc1cc(CN2CCN(C)CC2)cc(CN2C(=O)COc3ccc(C=C4SC(=S)NC4=O)cc32)c1
R = CN1CC(=O)Nc2cc(C=C3SC(=S)NC3=O)ccc21
[ask] Sequence the entries by pIC50, beginning with the highest number. Use the labels to give the requested order.
[reply] Q, P, R
(Q: 7.82, P: 7.08, R: 6.62)
